# ASSAY TEXT: qHTS assay to identify small molecule agonists of the retinoic acid receptor (RAR) signaling pathway (AID 1159553); on activation: on the % scale 0 is the no-effect control and ±100 the full control effect
# REPORTED CONDITIONS: C3RL4 RARE luciferase reporter, agonist, 6 h
# Text: National Center for Advancing Translational Sciences [NCATS] NIH Chemical Genomics Center [NCGC] U.S. Environmental Protection Agency [EPA] National Institutes of Environmental Health Sciences [NIEHS] National Toxicology Program [NTP] […]
Inconclusive results are not listed. Active and inactive are the calls of the source. The call rests on the fitted dose curve; in most records, active means well fitted activation curve with a large enough effect in the repeat runs; inconclusive means weak or mixed curves, or effect the other way; inactive means no such curve, though single readings can be large or run the other way.
The reply should be one of these categories: Y for active, N for inactive

Here's what some known entries look like.
[
  {
    "MOLECULE": "CCCCCCCCCCCCCC[N+](C)(C)C",
    "CLASS NAME": "N"
  },
  {
    "MOLECULE": "OC/C=C/CO",
    "CLASS NAME": "N"
  },
  {
    "MOLECULE": "O=C(O)CCN(C1(C(=O)NO)CCCC1)S(=O)(=O)c1ccc(Oc2ccc(F)cc2)cc1",
    "CLASS NAME": "N"
  },
  {
    "MOLECULE": "C#C[C@]1(OC(C)=O)CC[C@H]2[C@@H]3CCC4=C/C(=N/O)CC[C@@H]4[C@H]3CC[C@@]21CC",
    "CLASS NAME": "N"
  },
  {
    "MOLECULE": "OC12N=C(c3ccccc3)SC1Cc1cc(Cl)ccc12 (configuration not stated)",
    "CLASS NAME": "Y"
  },
  {
    "MOLECULE": "C=Cc1ccccc1C=C",
    "CLASS NAME": "N"
  }
]

Please state the recorded outcome for this molecule: CC(N=C(NC#N)Nc1ccncc1)C(C)(C)C (configuration not stated)
N

Please state the recorded outcome for this molecule: COc1cc(C)ccc1O
N

Please state the recorded outcome for this molecule: CCCCN(CCCC)CC(O)c1cc(Cl)cc2c1-c1ccc(Cl)cc1/C2=C/c1ccc(Cl)cc1 (configuration not stated)
N

Please state the recorded outcome for this molecule: CC(C)CCCCCOC(=O)CCS
N

Please state the recorded outcome for this molecule: CC[C@H](C)COC(=O)/C=C/c1ccc(N=Cc2ccc(OC)cc2)cc1
Y

Please state the recorded outcome for this molecule: C=CCn1c(=O)n(CC=C)c(=O)n(CC=C)c1=O
N

---

# TARGET UNDER TEST: Cytochrome P450 3A4 (Homo sapiens) (UniProt P08684)
# Sequence (P08684 whole entry, looked up): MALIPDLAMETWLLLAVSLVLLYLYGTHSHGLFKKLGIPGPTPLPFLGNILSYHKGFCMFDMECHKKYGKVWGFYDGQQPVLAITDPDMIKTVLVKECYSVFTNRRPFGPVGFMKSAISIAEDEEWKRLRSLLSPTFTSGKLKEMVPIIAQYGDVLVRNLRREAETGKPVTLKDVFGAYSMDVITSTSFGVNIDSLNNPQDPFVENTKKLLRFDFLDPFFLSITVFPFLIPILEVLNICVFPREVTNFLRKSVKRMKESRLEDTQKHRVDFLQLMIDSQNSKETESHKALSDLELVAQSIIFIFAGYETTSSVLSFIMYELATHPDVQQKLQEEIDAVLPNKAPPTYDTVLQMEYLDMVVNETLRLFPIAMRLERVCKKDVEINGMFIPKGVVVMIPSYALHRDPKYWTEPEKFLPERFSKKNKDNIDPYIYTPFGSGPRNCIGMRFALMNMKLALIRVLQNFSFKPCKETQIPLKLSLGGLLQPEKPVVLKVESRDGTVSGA
# ASSAY TEXT: Cytochrome P450 Family 3 Subfamily A Member 4 (CYP3A4) small molecule antagonists: luciferase reporter qHTS assay (AID 1671201); further: on the % scale 0 is the no-effect control and ±100 the full control effect; nearly all actives have a fitted effect of over 50% in size
# REPORTED CONDITIONS: P450-Glo CYP3A4 enzyme, luciferin luminescence, 1 h; series mostly up to 115 µM
Inconclusive results are not listed. Activity calls are given as the source filed them. The call rests on the fitted dose curve; in most records, active means well fitted inhibition curve with a large enough effect in the repeat runs; inconclusive means weak or mixed curves; inactive means no such curve, though single readings can be large or run the other way.
The reply should be one of these categories: active, inactive

Please state the recorded outcome for this molecule: CCC(C)(CCC(C)C)C(=O)[O][Sn]([CH3])([CH3])[O]C(=O)C(C)(CC)CCC(C)C (configuration not stated)
inactive

Please state the recorded outcome for this molecule: OC1CCCc2ccccc21 (configuration not stated)
inactive

Please state the recorded outcome for this molecule: OC[C@H]1O[C@H](O[C@H]2O[C@H](CO)[C@@H](O)[C@H](O)[C@H]2O)[C@H](O)[C@@H](O)[C@@H]1O
inactive

Please state the recorded outcome for this molecule: O=S(=O)(O)c1ccc(Nc2nc(Nc3ccc(/C=C/c4ccc(Nc5nc(Nc6ccc(S(=O)(=O)O)cc6)nc(N(CCO)CCO)n5)cc4S(=O)(=O)O)c(S(=O)(=O)O)c3)nc(N(CCO)CCO)n2)cc1
inactive

Please state the recorded outcome for this molecule: CCCC[P+](C)(CCCC)CCCC
inactive

---

# TARGET UNDER TEST: Cytochrome P450 1A2 (Homo sapiens)
# ASSAY TEXT: Cytochrome P450 Family 1 Subfamily A Member 2 (CYP1A2) small molecule antagonists: luciferase reporter qHTS assay (AID 1671199); further: nearly all actives have a fitted effect of over 50% in size
# REPORTED CONDITIONS: P450-Glo CYP1A2 enzyme, luciferin luminescence, 1 h; series mostly up to 115 µM
Results filed as inconclusive are left out. Activity calls are given as the source filed them. Calls come from the whole dose curve; as a rule, active = well fitted inhibition curve with a large enough effect in the repeat runs; inconclusive = weak or mixed curves; inactive = no such curve, though single readings can be large or run the other way.
The reply should be one of these categories: 1 for active, 0 for inactive

Here's what some known entries look like.
[
  {
    "SMILES REPR": "C/C=C/C=C/COC(=O)C(C)C",
    "CLASS NAME": 1
  },
  {
    "SMILES REPR": "CCCC1CCC(=O)CC1",
    "CLASS NAME": 0
  },
  {
    "SMILES REPR": "Clc1nnc(Cl)c2ccccc12",
    "CLASS NAME": 1
  },
  {
    "SMILES REPR": "CCc1cccc(CC)c1NC(=O)CN(CC(=O)O)CC(=O)O",
    "CLASS NAME": 0
  }
]

Please state the recorded outcome for this compound: Nc1nc(N)nc(-c2cc(Cl)ccc2Cl)n1
1

Please state the recorded outcome for this compound: [Cl][Pt-2]([Cl])([Cl])[Cl]
1

---

# TARGET UNDER TEST: Nuclear receptor subfamily 1 group I member 2 (Rattus norvegicus) (UniProt Q9R1A7)
# Sequence (Q9R1A7 whole entry, looked up): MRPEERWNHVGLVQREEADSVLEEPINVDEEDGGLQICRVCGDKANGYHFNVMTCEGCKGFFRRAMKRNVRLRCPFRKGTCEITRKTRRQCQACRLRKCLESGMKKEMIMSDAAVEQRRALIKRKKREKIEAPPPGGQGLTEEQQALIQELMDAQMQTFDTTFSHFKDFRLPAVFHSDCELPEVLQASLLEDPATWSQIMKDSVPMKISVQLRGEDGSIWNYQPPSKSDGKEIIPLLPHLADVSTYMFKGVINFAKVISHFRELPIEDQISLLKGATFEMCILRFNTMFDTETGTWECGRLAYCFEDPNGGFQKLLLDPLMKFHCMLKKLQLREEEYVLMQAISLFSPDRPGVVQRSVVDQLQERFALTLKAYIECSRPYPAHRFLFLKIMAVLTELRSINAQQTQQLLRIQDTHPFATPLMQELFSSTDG
# ASSAY TEXT: Rat pregnane X receptor (rPXR) activation by small molecules, qHTS assay (AID 1346983); further: on the % scale 0 is the no-effect control and ±100 the full control effect; nearly all actives have a fitted effect of over 20% in size
# REPORTED CONDITIONS: rPXR luciferase reporter cells, One-Glo luminescence, 24 h; active compounds read high
Inconclusive results are not listed.
Measured max activation by item
Only the number, expressed in %, is required.

[
  {
    "COMPOUND": "O=C(O)c1cc(-c2ccc(F)cc2F)ccc1O",
    "VAL": -2
  },
  {
    "COMPOUND": "CCCCCCCCCCCCCC[N+](C)(C)C",
    "VAL": -17
  },
  {
    "COMPOUND": "O=C(O)CN(CCN(CC(=O)O)CC(=O)O)CC(=O)O",
    "VAL": -0.541
  },
  {
    "COMPOUND": "COc1c(C)c2c(c(O)c1C/C=C(\\C)CCC(=O)OCCN1CCOCC1)C(=O)OC2",
    "VAL": -3.72
  },
  {
    "COMPOUND": "CC(N=C(NC#N)Nc1ccncc1)C(C)(C)C (stereo not drawn)",
    "VAL": -8.82
  }
]

Now turn to the next compound.
For the compound shown here, CC(C)NC[C@@H](O)COc1ccc(CC(N)=O)cc1 , give the reported max activation.
-0.64

---

# ASSAY TEXT: A CellTox Green Cytotoxicity Assay to monitor cytotoxicity in HepG2 cells - 0 hour (AID 1224882); further: on the % scale 0 is the no-effect control and ±100 the full control effect; nearly all actives have a fitted effect of over 35% in size
# REPORTED CONDITIONS: CellTox Green fluorescence; series mostly up to 76.8 µM
Active and inactive are the calls of the source. Calls come from the whole dose curve; as a rule, active = well fitted activation curve with a large enough effect in the repeat runs; inconclusive = weak or mixed curves; inactive = flat fitted curve, though single readings scatter.
OBSERVABLE: cytotoxicity

Example entries and their recorded answers appear below.
[
  {
    "COMPOUND": "CC(C)Cn1cnc2c(N)nc3ccccc3c21",
    "cytotoxicity": "-9.84% [at 15.8 µM] (inactive)"
  },
  {
    "COMPOUND": "CCCCCCCCCCCCOCCOCCOCCOCCOCCOCCOCCOCCOCCO",
    "cytotoxicity": "inactive"
  },
  {
    "COMPOUND": "OC1CCCc2ccccc21 (centres undefined)",
    "cytotoxicity": "inactive"
  },
  {
    "COMPOUND": "O=c1[nH]c2ccccc2n1CCCN1CCN(C(c2ccccc2)c2ccccc2)CC1",
    "cytotoxicity": "inactive"
  },
  {
    "COMPOUND": "CC(=O)[C@H]1CC[C@H]2[C@@H]3CCC4=CC(=O)CC[C@]4(C)[C@H]3CC[C@]12C",
    "cytotoxicity": "inactive"
  },
  {
    "COMPOUND": "S=c1nccc[nH]1",
    "cytotoxicity": "inactive"
  },
  {
    "COMPOUND": "O=C(O)c1ccc2cc(C(=O)O)ccc2c1",
    "cytotoxicity": "inactive"
  },
  {
    "COMPOUND": "C=Cc1ccccc1C=C",
    "cytotoxicity": "inactive"
  },
  {
    "COMPOUND": "C=Cc1cccc(C)c1",
    "cytotoxicity": "inactive"
  },
  {
    "COMPOUND": "Cc1ccc(O)c(N)c1",
    "cytotoxicity": "inactive"
  }
]

For the compound shown here, CN1CCN2c3ccccc3Cc3ccccc3C2C1 (centres undefined) , give the reported cytotoxicity.
inactive

For the compound shown here, CCN(CCN)c1cccc(C)c1 , give the reported cytotoxicity.
inactive

For the compound shown here, Nc1nc2c(ncn2COCCO)c(=O)[nH]1 , give the reported cytotoxicity.
inactive

---

# ASSAY TEXT: qHTS assay to identify small molecule antagonists of the estrogen receptor alpha (ER-alpha) signaling pathway - cell viability counter screen (AID 743074);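 further: HEK293 cells carrying ER-alpha-UAS-bla reporter stimulated with 17beta-estradiol; nearly all actives have a fitted effect of over 45% in size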
# REPORTED CONDITIONS: ERalpha-bla HEK293 viability, CellTiter-Glo luminescence, 18 h; series mostly up to 69.4 µM
Results filed as inconclusive are left out. Calls of active or inactive are those of the source. The call rests on the fitted dose curve.
The reply should be one of these categories: yes = active, no = inactive

Here's what some known entries look like.
[
  {
    "COMPOUND": "Cc1ccc(C)cc1",
    "CLASS NAME": "no"
  },
  {
    "COMPOUND": "Nc1ccc(NCCO)c([N+](=O)[O-])c1",
    "CLASS NAME": "no"
  },
  {
    "COMPOUND": "Cc1cc(-n2nc3ccc(Cl)cc3n2)c(O)c(C(C)(C)C)c1",
    "CLASS NAME": "no"
  },
  {
    "COMPOUND": "Cc1cc(=O)oc2cc(O)cc(O)c12",
    "CLASS NAME": "no"
  },
  {
    "COMPOUND": "CN1CCN(Cc2cc(-c3ccc4[nH]c(=O)oc4c3)co2)[C@@H](c2ccc(F)cc2)C1",
    "CLASS NAME": "no"
  },
  {
    "COMPOUND": "CC(=O)c1ccc(C(C)=O)cc1",
    "CLASS NAME": "no"
  },
  {
    "COMPOUND": "CC(C)(C)c1csc(-c2cc3cc(OCc4ccccc4CC(=O)O)ccc3o2)n1",
    "CLASS NAME": "yes"
  },
  {
    "COMPOUND": "OCCN1CCN(CCCN2c3ccccc3Sc3ccc(C(F)(F)F)cc32)CC1",
    "CLASS NAME": "no"
  }
]

Please state the recorded outcome for this compound: CC(C)CCCCCOC(=O)CCS
no

Please state the recorded outcome for this compound: COc1ccc2cc1Oc1ccc(cc1)C[C@H]1c3c(cc4c(c3Oc3cc5c(cc3OC)CCN(C)[C@@H]5C2)OCO4)CCN1C
no

Please state the recorded outcome for this compound: C#CC1(O)CC[C@H]2[C@@H]3CCC4=CCCC[C@@H]4[C@H]3CC[C@@]21C (stereo partly specified)
no
